# Test system: NCI/ADR-RES ovarian
# EXPERIMENTAL_PROTOCOL: NCI tumour cell line growth inhibition, 48 h
Property: TGI; scope: individual compounds

Here are 2 compounds together with their reported answers.
COMPOUND	TGI
CCC(=O)Nc1ccc(NS(=O)(=O)c2ccc(Cl)cc2)cc1	> 100 µM
CCOC(=O)/C=C(/C=C\COC1CCCCO1)c1ccccc1 (stereo unspecified)	95.7 µM

**Q:** Can you share its TGI? I mean this compound: CC1(C)OC[C@@H](C[C@H](O)COCc2ccccc2)O1
**A:** > 100 µM

**Q:** Can you share its TGI? I mean this compound: Nc1cc(N)c2nc(-c3ccccc3)c(Oc3ccc(F)cc3)nc2c1
**A:** 36.1 µM

**Q:** Can you share its TGI? I mean this compound: COc1cc(-c2oc3ccccc3c(=O)c2O)cc(OC)c1OC
**A:** > 100 µM

**Q:** Can you share its TGI? I mean this compound: CCOC(=O)Cn1nnc2cc(Nc3c(C)[n+]([O-])c4cc(F)c(OCC)cc4[n+]3[O-])ccc21
**A:** > 100 µM

**Q:** Can you share its TGI? I mean this compound: Cc1ccc2c(c1C)CC1(Cc3c(C)ccc(C)c3C1=O)C2=O (stereo unspecified)
**A:** > 100 µM

**Q:** Can you share its TGI? I mean this compound: C#C[C@]1(O)CC[C@H]2[C@@H]3CC=C4c5nc(Nc6ccccn6)sc5CC[C@]4(C)[C@H]3CC[C@@]21C
**A:** 6.1 µM

**Q:** Can you share its TGI? I mean this compound: O=C(CC(C(=O)c1cccs1)c1ccc2c(c1)OCO2)c1ccc(Br)cc1 (stereo unspecified)
**A:** > 100 µM

**Q:** Can you share its TGI? I mean this compound: Cc1nnc2n1-c1ccccc1N(Cc1ccccc1)CC2
**A:** 69.2 µM

**Q:** Can you share its TGI? I mean this compound: CCc1nc(N)nc(N)c1-c1ccc([N+](=O)[O-])c(NCc2ccccc2)c1
**A:** 38.2 µM

**Q:** Can you share its TGI? I mean this compound: O=C(Sc1c(-c2ccccc2)c(=O)n(-c2ccccc2)c(=S)n1-c1ccccc1)c1ccco1
**A:** > 100 µM

**Q:** Can you share its TGI? I mean this compound: COc1ccc(C2=C(Cl)C(=O)O/C2=C\c2ccc(OC)c(Br)c2)cc1Cl
**A:** 88.6 µM

**Q:** Can you share its TGI? I mean this compound: CC(=O)N(C)c1ccc(Nc2ccnc3ccc4nn(C)nc4c23)cc1
**A:** > 100 µM

**Q:** Can you share its TGI? I mean this compound: O=C1NC(=S)NC(=O)C1C(c1ccc(Cl)cc1)C1C(=O)NC(=S)NC1=O
**A:** > 100 µM

**Q:** Can you share its TGI? I mean this compound: Cc1cc(OCc2nnc3sc(NC(=O)c4ccccc4)nn23)ccc1Cl
**A:** > 100 µM

**Q:** Can you share its TGI? I mean this compound: Cn1cc(C2=C(c3cn(C)c4ccc(N)cc34)C(=O)NC2=O)c2ccccc21
**A:** > 25 µM

**Q:** Can you share its TGI? I mean this compound: COc1ccc(C2Oc3c(OC)cc(CCCO)cc3C2CO)cc1OC (stereo unspecified)
**A:** > 100 µM

**Q:** Can you share its TGI? I mean this compound: CN(C)CCCNc1cc(O)c2c(c1O)C(=O)c1ccccc1C2=O
**A:** 15.5 µM

**Q:** Can you share its TGI? I mean this compound: CC(=O)C1(O)CCC2(O)C3(O)CC=C4CC(O)CCC4(C)C3CC(OC(=O)c3ccc(O)cc3)C12C (stereo unspecified)
**A:** > 100 µM

**Q:** Can you share its TGI? I mean this compound: CC(C)(C)OC(=O)NCC(C#N)CNC(=O)OC(C)(C)C
**A:** > 100 µM
